What Recovery of mycoplasma joint was measured for each of the following?
# System: MRL-4 strain of mycoplasma pulmonis
# PROTOCOL DESCRIPTION: Curative effect in mice infected with MRL-4 strain of mycoplasma pulmonis by oral administration in feed
# Assay type: in vivo
# CONDITION LABEL: 0.005% in feed, 10 days, after one month
# Experimental: Each of the dithiocarbamic acid derivatives as indicated below with Compound No. was added to a feed and administered orally to mice infected artificially with MRL-4 strain of mycoplasma pulmonis. The effectiveness of the treatment was evaluated. Six groups, each group consisting of ten female mice which were negative in the test for mycoplasmosis, were used. […]

Worked set:
(Q) GET /values?readout=Recovery of mycoplasma joint&item= CC(=O)CCSC(=S)N1CCCCC1 [compound 88, 2-Acetylethyl 1-piperidinecarbodithioate]
(A) 3/10

(Q) Could you tell me which Recovery of mycoplasma joint is on file for O=C1CCCCC1CSC(=S)N1CCOCC1 (stereo not shown) ?
(A) 6/10

(Q) Can you share its Recovery of mycoplasma joint? I mean this molecule: CCN(CC)C(=S)SCCC(C)=O [compound 79, 2-Acetylethyl diethyldithiocarbamate]
(A) 2/10

Continue with the molecule presented below.
(Q) Given the molecule CCN(CC)C(=S)SCCC(=O)c1ccccc1 [compound 24, 2-Benzoylethyl diethyldithiocarbamate] , what is its reported Recovery of mycoplasma joint?
(A) 4/10

====

# Test system: MRL-4 strain of mycoplasma pulmonis
# PROTOCOL DESCRIPTION: Curative effect in mice infected with MRL-4 strain of mycoplasma pulmonis by oral administration in feed
# Type: in vivo
# CONDITION LABEL: 0.02% in feed, 10 days, after one month
What Attack rate arthritis was measured for each of the following?

Consider the following illustrative entries.
(Q) Test system MRL-4 strain of mycoplasma pulmonis; read-out Attack rate arthritis; what value for O=C1CCCCC1CSC(=S)N1CCOCC1 (stereo not shown) [Compound No. 12] ?
(A) 1/10

(Q) Hi! What's the reported Attack rate arthritis for CC(=O)CCSC(=S)N1CCCCC1 [compound 88, 2-Acetylethyl 1-piperidinecarbodithioate] on MRL-4 strain of mycoplasma pulmonis?
(A) 0/10

(Q) Recorded Attack rate arthritis for CCN(CC)C(=S)SCCC(C)=O [compound 79, 2-Acetylethyl diethyldithiocarbamate] with MRL-4 strain of mycoplasma pulmonis, please?
(A) 0/10

API: the following record is the query input.
(Q) Lab note: need Attack rate arthritis for CCN(CC)C(=S)SCCC(=O)c1ccccc1 [compound 24, 2-Benzoylethyl diethyldithiocarbamate] on MRL-4 strain of mycoplasma pulmonis, anyone have it?
(A) 2/10

====

# Tested on: Mycoplasma hyorhinis
# PROTOCOL DESCRIPTION: Antimicrobial test, conventional agar plate dilution method, Mycoplasma hyorhinis
# Format: cell-based
# CONDITION LABEL: Mycoplasma, read-out: Minimum Inhibitory Concentration, Mycoplasma hyorhinis
For each of the molecules below, state its MIC.
Numbers only, in µg/mL.

(Q) What measured MIC goes with Cc1cc(O)c(CSC(=S)N(C)C)cc1CSC(=S)N(C)C ?
(A) 0.39

(Q) Find the recorded MIC belonging to CCCc1cc(CSC(=S)N(C)C)cc(CN(C)C)c1O.Cl and report it.
(A) 0.2

Hi team, please reply with MIC for each item in this list.
1. Cc1cc2c(c(O)c1CSC(=S)N1CCN(C)CC1)C1OCC34CCCC(C)(C)C3CCC(C)(O2)C14 (centres unmarked)
2. CCC(C)c1cc(CSC(=S)N(C)C)cc(CN(C)C)c1O.Cl (centres unmarked)
3. CCCCN(C)C(=S)SCCC(C)=O

(A)
0.39
0.2
0.1

====

# Tested on: Mycoplasma hyorhinis
# PROTOCOL DESCRIPTION: Antimicrobial test, conventional agar plate dilution method, Mycoplasma hyorhinis
# Format: cell-based
# CONDITION LABEL: Mycoplasma, read-out: Minimum Inhibitory Concentration, Mycoplasma hyorhinis
TEST READOUT: MIC (µg/mL)
Answers are plain numbers, in µg/mL.

Consider the worked cases shown below.
(Q) Reported MIC for Cc1cc(CSC(=S)N2CCN(C)CC2)cc(C)c1O.Cl [compound 196] : what is it?
(A) 0.39

(Q) Which measured MIC value corresponds to CN(C)C(=S)SCCC(=O)C(C)(C)C [compound 108, 2-Pivaroylethyl dimethyldithiocarbamate] ?
(A) 0.2

(Q) So what does the record say about MIC for CC(=O)CCSC(=S)N(C)C1CCCCC1 [compound 81] ?
(A) 0.2

(Q) Given the entry CCN(CC)C(=S)SCc1cc(CN(C)C)c(O)c(C(C)(C)C)c1 [compound 241] , report its measured MIC.
(A) 0.39

// below: MIC requested for another compound
(Q) Which measured MIC value corresponds to CCN(CC)C(=S)SCCC(=O)CCc1ccccc1O [compound 125] ?
(A) 0.2

====

# Test system: MRL-4 strain of mycoplasma pulmonis
# PROTOCOL DESCRIPTION: Curative effect in mice infected with MRL-4 strain of mycoplasma pulmonis by oral administration in feed
# Assay type: in vivo
# CONDITION LABEL: 0.01% in feed, 10 days, after one month
I'd appreciate it if you could supply Attack rate arthritis values for the items below.

(Q) What value of Attack rate arthritis has been reported for the following molecule? CC(=O)CCSC(=S)N1CCCCC1 [compound 88, 2-Acetylethyl 1-piperidinecarbodithioate]
(A) 1/10

(Q) Report Attack rate arthritis for CCN(CC)C(=S)SCCC(C)=O [compound 79, 2-Acetylethyl diethyldithiocarbamate] please.
(A) 0/10

(Q) Would you mind telling me what Attack rate arthritis value was observed for O=C1CCCCC1CSC(=S)N1CCOCC1 (stereo not shown) ?
(A) 4/10

Note: attention shifts to another entry.
(Q) Which Attack rate arthritis is listed for CCN(CC)C(=S)SCCC(=O)c1ccccc1 [compound 24, 2-Benzoylethyl diethyldithiocarbamate] ?
(A) 3/10

====

# System: Mycoplasma hyorhinis
# PROTOCOL DESCRIPTION: Antimicrobial test, conventional agar plate dilution method, Mycoplasma hyorhinis
# Type: cell-based
# CONDITION LABEL: Mycoplasma, read-out: Minimum Inhibitory Concentration, Mycoplasma hyorhinis
TEST READOUT: log10(MIC) (log10 of the value in µg/mL)
Recorded MIC (log10, µg/mL)

Worked examples follow.
(Q) Find the recorded log10(MIC) belonging to CCN(CC)C(=S)SCC1CCCC1=O (stereo not drawn) and report it.
(A) -1.00

(Q) Look at this compound and give its reported log10(MIC). CN(C)C(=S)SCCC(=O)c1ccccc1 [compound 23, 2-Benzoylethyl dimethyldithiocarbamate]
(A) -1.30

(Q) Entry under review: Oc1c(Cl)cc(CSC(=S)N2CCCCC2)cc1Cl . Reported log10(MIC)?
(A) 0.19

Field: log10(MIC). Fill in for each record below.
1. COc1cc(CSC(=S)N2CCOCC2)cc(OC)c1O
2. CCC(=O)CCSC(=S)N(CC)CC [compound 99, 2-Propionylethyl diethyldithiocarbamate]
3. CN(C)C(=S)SCc1cc(C(C)(C)C)c(O)c(C(C)(C)C)c1
4. CC(=O)CCSC(=S)N(C)Cc1ccccc1

(A)
[-0.11, -1.30, -0.41, -0.70]

Consider the following items and state reported log10(MIC) for each.
1. Cc1cc(CSC(=S)N(C)C)cc(C)c1O
2. CC(=O)CCSC(=S)N(C)C [compound 78, 2-Acetylethyl dimethyldithiocarbamate]

(A)
[-0.70, -1.60]

====

Exercise: state measured MIC for each of the molecules provided.
# System: Mycoplasma hyorhinis
# PROTOCOL DESCRIPTION: Antimicrobial test, conventional agar plate dilution method, Mycoplasma hyorhinis
# Type: cell-based
# CONDITION LABEL: Mycoplasma, read-out: Minimum Inhibitory Concentration, Mycoplasma hyorhinis
Numbers only, in µg/mL.

(Q) # query: MIC of entry Cc1ccc(C(=O)CCSC(=S)N(C)C)cc1
(A) 0.2

(Q) // query MIC value for entry CN(C)C(=S)SCc1cc(CSC(=S)N(C)C)c(O)c(C(C)(C)C)c1
(A) 0.2

(Q) Given the entry CCN(CC)C(=S)SCc1cc(C)cc(C)c1O , report its measured MIC.
(A) 0.2

(Q) Please look up its MIC: CC(=O)C(CSC(=S)N(C)C)Cc1ccccc1 (stereo not drawn)
(A) 0.2

(Q) Can you share its MIC? I mean this molecule: Cc1cc(CSC(=S)N(C)C)cc(CN(C)C)c1O
(A) 0.2

// input: 8 molecules below; output: MIC for each
1. CN(C)C(=S)SCCC(=O)C=Cc1ccccc1 [compound 134, 2-Cinnamoylethyl dimethyldithiocarbamate]
2. O=C(CCSC(=S)N1CCCCCC1)c1ccccc1
3. CCN(CC)C(=S)SCCC(=O)C=Cc1ccccc1 [compound 135, 2-Cinnamoylethyl diethyldithiocarbamate]
4. CCC(C)c1cc(CSC(=S)N(C)C)cc(CSC(=S)N(C)C)c1O (stereo not drawn)
5. CN(C)C(=S)SCc1cc(Cl)c(O)c(Cl)c1
6. CN1CCN(C(=S)SCc2oc(CO)cc(=O)c2O)CC1
7. Cc1cc(CSC(=S)N2CCCCC2)cc(C)c1O
8. Cc1cc(CSC(=S)N2CCOCC2)cc(C)c1O

(A)
0.2
0.2
0.2
0.2
0.2
3.13
0.1
0.78

# return MIC for each item in the list
1. CCCCCCCCCCC(CSC(=S)N(C)C)C(C)=O (stereo not drawn) [compound 152, 2-Acetyldodecyl dimethyldithiocarbamate]
2. CCN(CC)C(=S)SCCC(=O)C=Cc1ccc(C)cc1
3. CCN(CC)C(=S)SCc1c(C)cc2c(c1O)C1OCC34CCCC(C)(C)C3CCC(C)(O2)C14 (stereo not drawn)
4. O=C1CCCC1CSC(=S)N1CCOCC1 (stereo not drawn)
5. O=C(CCSC(=S)N1CCOCC1)c1ccccc1[N+](=O)[O-]
6. CCCc1cc(CSC(=S)N(C)C)cc(CSC(=S)N(C)C)c1O

(A)
[0.39, 0.2, 0.1, 0.2, 1.56, 0.2]

Parameters: items (list). Returns: MIC for each item.
1. CCN(CC)C(=S)SCC1CCCCC1=O (stereo not drawn)
2. CCCCN(C)C(=S)SCC1CCCCC1=O (stereo not drawn)
3. O=C1CCCCC1CSC(=S)N1CCOCC1 (stereo not drawn)
4. CC(=O)CCSC(=S)N1CCOCC1 [compound 91, 2-Acetylethyl 4-morpholinecarbodithioate]
5. O=C(CCSC(=S)N1CCOCC1)c1ccccc1O

(A)
0.05
0.2
0.39
0.025
0.39

I'm hoping you can list MIC for every molecule here, please.
1. CC(C)(C)c1cc(C(SC(=S)N2CCCCC2)c2ccccc2)cc(C(C)(C)C)c1O (stereo not drawn)
2. CC1=C(C=CC(=O)CCSC(=S)N(C)C)C(C)(C)CCC1
3. CCN(CC)C(=S)SCc1cc(C)c(O)cc1C(C)C
4. CC(C)c1cc(CSC(=S)N2CCOCC2)cc(C(C)C)c1O
5. O=c1cc(CO)oc(CSC(=S)N2CCCCC2)c1O
6. CC(C)C(=O)CCSC(=S)N(C)C

(A)
0.39
0.39
0.1
0.39
3.13
0.2
